Target Under Test: T1, CRBN, Q96SW2;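 note: pooled lentiviral library of zinc finger degron-EGFP fusions in mCherry-positive Jurkat cells, FACS-sorted after compound exposure, with degron abundance counted by next-generation sequencing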
T1 chain: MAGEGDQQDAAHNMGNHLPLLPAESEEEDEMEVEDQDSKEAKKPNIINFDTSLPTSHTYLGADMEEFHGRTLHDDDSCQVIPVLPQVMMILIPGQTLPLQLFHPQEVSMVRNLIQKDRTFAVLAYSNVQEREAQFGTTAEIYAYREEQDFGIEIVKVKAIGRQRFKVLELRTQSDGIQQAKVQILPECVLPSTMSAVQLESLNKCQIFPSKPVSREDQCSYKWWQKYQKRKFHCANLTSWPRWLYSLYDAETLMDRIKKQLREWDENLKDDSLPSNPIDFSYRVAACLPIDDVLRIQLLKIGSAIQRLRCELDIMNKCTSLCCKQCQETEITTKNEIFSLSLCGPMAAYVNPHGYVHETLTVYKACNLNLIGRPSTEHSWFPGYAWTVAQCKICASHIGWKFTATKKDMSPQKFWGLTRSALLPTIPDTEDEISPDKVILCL
Assay: log2 fold change of degron read counts, EGFP-low vs EGFP+ sorted cells (limma voom), compound-induced degradation; higher = more compound-induced degradation of the degron-EGFP fusion; degrons are variants of IKZF1/3 zinc finger 2; compound dose not given here
Condition: Jurkat; 18 h; compound: compound 33 (diphenyl IMiD analogue)
Over roughly 8,300 sequences, “log2 fold change of degron read counts, EGFP-low vs EGFP+ sorted cells (limma voom), compound-induced degradation” has its median near -1.1; the highest 2% begin near 3.2. The entries come from a sample that favours the highest values as a whole.
Can you tell me log2 fold change of degron read counts for the items I'm about to list?

The reported value for FWCEVCGANFTQKGNLLRHIKL [46F_47W_49E_50V_52G_53A_54N_55F_67L_, Q9UKT9] in terms of log2 fold change of degron read counts is 2.16

The reported value for FQCEVCGANFTQKGNLLRHIKL [46F_47Q_49E_50V_52G_53A_54N_55F_67L_, Q9UKT9] in terms of log2 fold change of degron read counts is 1.34

The reported value for FICNQCGHQFTQKGNLLRHIKL [46F_47I_49N_50Q_52G_53H_54Q_55F_67L_, Q9UKT9] in terms of log2 fold change of degron read counts is -2.9

The reported value for FICEVCGANFTQKGNLLRHIKL [46F_47I_49E_50V_52G_53A_54N_55F_67L_, Q9UKT9] in terms of log2 fold change of degron read counts is 2.03

The reported value for FNCEVCGANFTQKGNLLRHIKL [46F_47N_49E_50V_52G_53A_54N_55F_67L_, Q9UKT9] in terms of log2 fold change of degron read counts is -0.251

The reported value for FVCEVCGANFTQKGNLLRHIKL [46F_47V_49E_50V_52G_53A_54N_55F_67L_, Q9UKT9] in terms of log2 fold change of degron read counts is 2.09

The reported value for LFCPICGFACTQKGNLLRHIKL [46L_47F_49P_50I_52G_53F_54A_55C_67L_, Q9UKT9] in terms of log2 fold change of degron read counts is 2.44
